The reported numbers originate from PubChem BioAssay AID330.

# Test system: P388 leukemia ip, CD2F1 mice, survival T/C
# Test Method Notes: NCI In Vivo Anticancer Drug Screen. Data for tumor model P388 Leukemia (intraperitoneal) in CD2F1 (CDF1) mice
# Cond: endpoint: median survival time; dose: 200.0 mg/kg/injection; schedule: Q01DX009 (ip); vehicle: saline; higher = longer survival
Inconclusive results and toxic doses are left out.
// reported T/C per item

Nc1ccccc1SCc1csc(-c2ccc(Cl)cc2)n1 : 109 % of control

[Q] // query T/C value for entry CCOP(=O)(Nc1cc(C)ccc1C)OCC
[A] 106 % of control

[Q] // query T/C value for entry CCOC(=O)C(Br)(C(=O)OCC)C(C)C
[A] 120 % of control

[Q] // query T/C value for entry Cc1ccnc(Sc2ccc([N+](=O)[O-])cc2[N+](=O)[O-])n1
[A] 100 % of control

[Q] // query T/C value for entry Cc1cccc(Nc2cc(Cl)nc(SCC(=O)O)n2)c1C
[A] 100 % of control

[Q] // query T/C value for entry CCOC(=O)/C=C1/SC(N2CCCCC2)C(=O)N1C (stereo not drawn)
[A] 100 % of control

[Q] // query T/C value for entry O=C1OC2CSCC2O1 (stereo not drawn)
[A] 101 % of control

[Q] // query T/C value for entry CCOP(=O)(CC1OCC2(CO1)COC(CP(=O)(OCC)OCC)OC2)OCC (stereo not drawn)
[A] 100 % of control

* * *

# Tested on: P388 leukemia ip, CD2F1 mice, survival T/C
# Test Method Notes: NCI In Vivo Anticancer Drug Screen. Data for tumor model P388 Leukemia (intraperitoneal) in CD2F1 (CDF1) mice
# Cond: endpoint: median survival time; dose: 120.0 mg/kg/injection; schedule: Q01DX005 (ip); vehicle: saline with Tween-80; higher = longer survival
Toxic doses and inconclusive results are not listed.
// reported T/C per item

Nc1[nH]n(-c2ccccc2)c(=O)c1C1c2ccccc2Sc2ccccc21 : 99 % of control
COc1cc(-c2cc(O)c(-c3ccc4ccccc4n3)c(=O)[nH]2)cc(OC)c1OC : 87 % of control
COC(=O)c1cc(-c2ccccc2Cl)n2c(N)nnc2n1 : 105 % of control
O=C1CCC(Cc2ccc(C(F)(F)F)cc2)C(=O)N1 (configuration not stated) : 95 % of control
N#CC(C#N)=C(O)/C(=C/c1ccc(Cl)cc1Cl)NC(=O)c1ccccc1 : 98 % of control
CCCCCCC(=O)/C=c1\c(CC(=O)CCCCCC)nc2nnc(N)n12 : 100 % of control

[Q] // query T/C value for entry O=[N+]([O-])c1ccccc1S(=O)(=O)N(CCCCN(S(=O)(=O)c1ccccc1[N+](=O)[O-])S(=O)(=O)c1ccccc1[N+](=O)[O-])S(=O)(=O)c1ccccc1[N+](=O)[O-]
[A] 91 % of control

[Q] // query T/C value for entry COC(=O)c1nn(Cc2ccccc2)cc1C=O
[A] 92 % of control

* * *

# Tested on: P388 leukemia ip, CD2F1 mice, survival T/C
# Test Method Notes: NCI In Vivo Anticancer Drug Screen. Data for tumor model P388 Leukemia (intraperitoneal) in CD2F1 (CDF1) mice
# Cond: endpoint: median survival time; dose: 200.0 mg/kg/injection; schedule: Q01DX005 (ip); vehicle: Klucel (hydroxypropylcellulose) (HPC); higher = longer survival
Inconclusive results and toxic doses are left out.
Measurement Label: T/C

These solved cases illustrate the format of a correct answer.
CCOP(=S)(N/N=C/c1ccc(Cl)s1)OCC : 114 % of control
O=C(OCc1ccccc1)N(CCF)c1cn(Cc2ccccc2)c(=O)n(Cc2ccccc2)c1=O : 87 % of control
O=C(Sc1ccc(F)cc1)N1CCN(C(=O)Sc2ccc(F)cc2)CC1 : 100 % of control

Below: the item to evaluate.
[Q] Form field - read-out: T/C; system: P388 leukemia ip, CD2F1 mice, survival T/C; submitted item: COc1ccc2c3c(c(=O)n(C)c2c1OC)C=CC(C)(C)O3
[A] 88 % of control
